Assign viability decrease (inhibition) to each entry below.
# test_details: CellTiter-Glo luminescent readout of SW480 viability loss, NPC library primary (AID 1117343)
# assay_setup: CellTiter-Glo luminescence; at 20 µM (top of the series)
Numbers only, in %.

Consider the reported viability decrease (inhibition) for these molecules:
molecule	viability decrease (inhibition), %
CC(C(O)c1ccccc1)N(C)C/C=C/c1ccccc1 (configuration not stated)	29.4
CNC(C)(C)Cc1ccccc1	15.4
Cc1nnc2n1-c1sc(CCc3ccc(CC(C)C)cc3)cc1C(c1ccccc1Cl)=NC2C (configuration not stated)	134
Nc1ccc(N)cc1	84.1
C[C@H]1C(=O)O[C@@H]2CCN3CC=C(COC(=O)[C@](C)(O)[C@]1(C)O)[C@H]23	-1.2

Could I get viability decrease (inhibition) for every one of these entries?
1. C1CN2CCC1CC2
2. C[C@]12CCC(=O)C=C1CC[C@@H]1[C@@H]2CC[C@]2(C)C(=O)CC[C@@H]12

1: 4.8; 2: 23.5

====

# test_details: sensitizers of A549 cells to miR-34 induction, primary screen, imaging, A549 dox-inducible miR-34, nuclei and caspase counts (AID 1347080)
# assay_setup: A549 miR-34 inducible, Hoechst nuclei count, 48 h
The source made the active and inactive calls.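 The calls were made as follows: active = compounds whose cell count with miR-34 switched on is under 0.7 times the count with it off; inactive = the rest.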
The reply should be one of these categories: true (active), false (inactive)

Study these solved cases before continuing.
compound	qualitative_label
O=C(CCC/C=C\C[C@@H]1[C@@H](/C=C/[C@@H](O)COc2cccc(C(F)(F)F)c2)[C@H](O)C[C@@H]1O)NC(CO)CO	false
CC(C)=CCOc1c2occc2cc2ccc(=O)oc12	false
CC(C)[C@]1(O)[C@@H](OC(=O)c2ccc[nH]2)[C@@]2(O)[C@@]3(C)C[C@]4(O)O[C@@]5([C@H](O)[C@@H](C)CC[C@]35O)[C@@]2(O)C41C	false

Please state the recorded outcome for this compound: CC(C)NC(C)Cc1ccc(I)cc1 (stereo not drawn)
false

Please state the recorded outcome for this compound: CCCCC(C#N)(Cn1cncn1)c1ccc(Cl)cc1 (stereo not drawn)
false

Please state the recorded outcome for this compound: Cc1ncc(CNC(=O)N(CCCl)N=O)c(N)n1
false

Please state the recorded outcome for this compound: C[C@@H]1O[C@@H](O[C@H]2C[C@@H](O)[C@]3(CO)C4C(CC[C@]3(O)C2)[C@@]2(O)CC[C@H](C3=CC(=O)OC3)[C@@]2(C)C[C@H]4O)[C@H](O)[C@H](O)[C@H]1O (stereo partly drawn)
true

Please state the recorded outcome for this compound: C[C@]12CCC(=O)C(O)=C1CC[C@@H]1[C@@H]2CC[C@]2(C)C(=O)CC[C@@H]12
false

====

# test_details: JHH-DIPG-1 glioma cell viability, MIPE5.0 library, CellTiter-Glo luminescence, qHTS (AID 1347067);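 further: cells exposed to compound for 48 hours before readout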
# assay_setup: JHH-DIPG-1 glioma viability, CellTiter-Glo ATP luminescence
Records with an inconclusive call do not appear. Active and inactive are the calls of the source. Cut-off not given; nearly all actives show AC50 up to about 26 µM.
The reply should be one of these categories: Yes = active, No = inactive

Study these solved cases before continuing.
compound	qualitative_label
CN(C)c1cc2c(cc1Sc1nc3c(N)nccc3n1CCNCC(C)(C)C)OCO2	Yes
N#CC(O[C@@H]1O[C@H](CO[C@@H]2O[C@H](CO)[C@@H](O)[C@H](O)[C@H]2O)[C@@H](O)[C@H](O)[C@H]1O)c1ccccc1 (stereo partly drawn)	No
O=c1[nH]c2ccc(Cl)cc2c(N[C@@H]2CN3CCC2CC3)c1-c1nc2ccccc2[nH]1	Yes
CC(=O)Nc1ccc(OC[C@](C)(O)C(=O)Nc2ccc([N+](=O)[O-])c(C(F)(F)F)c2)cc1	No

Moving on to another compound below.
Please state the recorded outcome for this compound: O=C(O)c1nn(Cc2ccc(Cl)cc2Cl)c2ccccc12
No

Ref: PubChem BioAssay
